Experiment: Compound plasma levels in mice under Alzet pump infusion
Assay type: in vivo, C57BL/6 mice
Conditions: C57BL/6, mouse, other: Alzet pump infusion (perfused), 25 µg/hr, young (2-month-old) mice perfused 2 weeks at 0.5 μL/hr of 50 mg/mL solution, mean±s.e.m., read-out: level of the compound in plasma
measuredMetric: concentration at 2 weeks (nM)
Reply numerically in nM, unit not repeated.

Entry Cc1cc(C(=O)N(C)C)cc(NC(=O)[C@H]2CCC(=O)N2C2CCN(Cc3ccc(Cl)c(C)c3)CC2)n1 [Compound 1] has what concentration at 2 weeks?
352

---

Target: UniProt:P51678
Sequence (P51678 whole entry): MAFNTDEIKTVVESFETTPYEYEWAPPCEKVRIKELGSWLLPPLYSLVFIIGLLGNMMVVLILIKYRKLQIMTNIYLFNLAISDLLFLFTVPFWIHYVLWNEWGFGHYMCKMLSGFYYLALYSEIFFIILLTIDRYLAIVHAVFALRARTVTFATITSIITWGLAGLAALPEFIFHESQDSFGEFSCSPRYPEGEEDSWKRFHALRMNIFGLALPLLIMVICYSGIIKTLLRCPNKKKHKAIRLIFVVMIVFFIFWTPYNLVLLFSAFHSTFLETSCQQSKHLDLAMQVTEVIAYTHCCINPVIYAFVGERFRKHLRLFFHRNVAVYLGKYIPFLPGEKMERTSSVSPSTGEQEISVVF
Assay: cell line receptor binding (Ki for the compound in mice)
Settings: determined by cell line receptor binding
measuredMetric: Ki
Quick note: unit goes after the number.

Any idea what its Ki is? The compound is Cc1cc(C(=O)N(C)C)cc(NC(=O)[C@H]2CCC(=O)N2C2CCN(Cc3ccc(Cl)c(C)c3)CC2)n1
0.124 µM

These entries and their values trace back to patent US11382907B2.
